// reported hIP1 GRPR EC50 for each item listed
Study target: human GRP receptor (human, UniProt P30550 1-384)
Sequence (P30550 whole entry): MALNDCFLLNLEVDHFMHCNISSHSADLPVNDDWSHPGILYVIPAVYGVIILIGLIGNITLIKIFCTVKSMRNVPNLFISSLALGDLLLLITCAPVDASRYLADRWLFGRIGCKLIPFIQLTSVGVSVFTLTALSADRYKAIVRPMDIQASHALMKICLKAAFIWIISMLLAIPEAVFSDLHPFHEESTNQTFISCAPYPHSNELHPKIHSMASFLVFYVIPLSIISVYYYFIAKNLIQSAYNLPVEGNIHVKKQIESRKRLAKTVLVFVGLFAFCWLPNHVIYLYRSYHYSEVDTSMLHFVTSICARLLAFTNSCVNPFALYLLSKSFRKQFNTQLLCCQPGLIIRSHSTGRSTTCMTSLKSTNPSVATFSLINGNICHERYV
Method: cell-based or functional assay
Starred links: 1 amine or outer side, 2 acyl side, 3 side chain; linkers in the order of their positions; H or OH if unused. Non-standard residues stand in square brackets, D forms with d. *: point of attachment. Trp(7-F) = N[C@@H](Cc1c[nH]c2c(F)cccc12)C(=O)O; Trp(7-Me) = Cc1cccc2c(C[C@H](N)C(=O)O)c[nH]c12; d(γGlu) = O=C(O)[C@@H](CCC(=O)[*:2])N[*:1]; C18 diacid = O=C(O)CCCCCCCCCCCCCCCCC(=O)*; γGlu = O=C(O)[C@H](CCC(=O)[*:2])N[*:1]; Palmitoyl = CCCCCCCCCCCCCCCC(=O)*; 4Pal = N[C@@H](Cc1ccncc1)C(=O)O; Nle = CCCC[C@H](N)C(=O)O; AEEA = NCCOCCOCC(=O)O; Aib = CC(C)(N)C(=O)O
Please respond with the number in nM and leave the unit unwritten.

Recorded results for 3 binders are shown here.
- Binder: "GNHWAVXHLX (not fully specified; Ac-Gly-Asn-His-Trp-Ala-Val-D-Ala-His-Leu-Nle-H2N(CH2)3NH2-OEG-OEG-(α-Palmitoyl-D-γGlu)) [Peptide 25]"
  Measurement unit: "nM"
  Reported value: 10000
- Binder: "Palmitoyl-[d(γGlu)][AEEA][AEEA]GNH[Trp(7-Me)][Aib]V[dA]HL[Nle]-NH2 (SMILES CCCCCCCCCCCCCCCC(=O)N[C@H](CCC(=O)NCCOCCOCC(=O)NCCOCCOCC(=O)NCC(=O)N[C@@H](CC(N)=O)C(=O)N[C@@H](Cc1c[nH]cn1)C(=O)N[C@@H](Cc1c[nH]c2c(C)cccc12)C(=O)NC(C)(C)C(=O)N[C@H](C(=O)N[C@H](C)C(=O)N[C@@H](Cc1c[nH]cn1)C(=O)N[C@@H](CC(C)C)C(=O)N[C@@H](CCCC)C(N)=O)C(C)C)C(=O)O) [Peptide 14]"
  Measurement unit: "nM"
  Reported value: 10.8
- Binder: "{C18 diacid}-[γGlu][AEEA][AEEA][AEEA][AEEA]GRH[Trp(7-F)]AV[dA]HL[Nle]-NH2 (SMILES CCCC[C@H](NC(=O)[C@H](CC(C)C)NC(=O)[C@H](Cc1c[nH]cn1)NC(=O)[C@@H](C)NC(=O)[C@@H](NC(=O)[C@H](C)NC(=O)[C@H](Cc1c[nH]c2c(F)cccc12)NC(=O)[C@H](Cc1c[nH]cn1)NC(=O)[C@H](CCCNC(=N)N)NC(=O)CNC(=O)COCCOCCNC(=O)COCCOCCNC(=O)COCCOCCNC(=O)COCCOCCNC(=O)CC[C@H](NC(=O)CCCCCCCCCCCCCCCCC(=O)O)C(=O)O)C(C)C)C(N)=O) [Peptide 109]"
  Measurement unit: "nM"
  Reported value: 18.7

From here, focus on the item given below.
Recorded hIP1 GRPR EC50 (binder Palmitoyl-[d(γGlu)][AEEA][AEEA]GN[4Pal]WAV[dA]HL[Nle]-NH2 (SMILES CCCCCCCCCCCCCCCC(=O)N[C@H](CCC(=O)NCCOCCOCC(=O)NCCOCCOCC(=O)NCC(=O)N[C@@H](CC(N)=O)C(=O)N[C@@H](Cc1ccncc1)C(=O)N[C@@H](Cc1c[nH]c2ccccc12)C(=O)N[C@@H](C)C(=O)N[C@H](C(=O)N[C@H](C)C(=O)N[C@@H](Cc1c[nH]cn1)C(=O)N[C@@H](CC(C)C)C(=O)N[C@@H](CCCC)C(N)=O)C(C)C)C(=O)O) [Peptide 52] ): 1.75
